biological target: mTOR (Homo sapiens); construct: FLAG; made in house; test: In Vitro mTOR Kinase Assay (Echo), Test (a)(ii); type: biochemical; settings: table of enzyme assay Test (a)(ii); read-out: Test (a)(ii) IC50
Sequence (P42345 1362-2549): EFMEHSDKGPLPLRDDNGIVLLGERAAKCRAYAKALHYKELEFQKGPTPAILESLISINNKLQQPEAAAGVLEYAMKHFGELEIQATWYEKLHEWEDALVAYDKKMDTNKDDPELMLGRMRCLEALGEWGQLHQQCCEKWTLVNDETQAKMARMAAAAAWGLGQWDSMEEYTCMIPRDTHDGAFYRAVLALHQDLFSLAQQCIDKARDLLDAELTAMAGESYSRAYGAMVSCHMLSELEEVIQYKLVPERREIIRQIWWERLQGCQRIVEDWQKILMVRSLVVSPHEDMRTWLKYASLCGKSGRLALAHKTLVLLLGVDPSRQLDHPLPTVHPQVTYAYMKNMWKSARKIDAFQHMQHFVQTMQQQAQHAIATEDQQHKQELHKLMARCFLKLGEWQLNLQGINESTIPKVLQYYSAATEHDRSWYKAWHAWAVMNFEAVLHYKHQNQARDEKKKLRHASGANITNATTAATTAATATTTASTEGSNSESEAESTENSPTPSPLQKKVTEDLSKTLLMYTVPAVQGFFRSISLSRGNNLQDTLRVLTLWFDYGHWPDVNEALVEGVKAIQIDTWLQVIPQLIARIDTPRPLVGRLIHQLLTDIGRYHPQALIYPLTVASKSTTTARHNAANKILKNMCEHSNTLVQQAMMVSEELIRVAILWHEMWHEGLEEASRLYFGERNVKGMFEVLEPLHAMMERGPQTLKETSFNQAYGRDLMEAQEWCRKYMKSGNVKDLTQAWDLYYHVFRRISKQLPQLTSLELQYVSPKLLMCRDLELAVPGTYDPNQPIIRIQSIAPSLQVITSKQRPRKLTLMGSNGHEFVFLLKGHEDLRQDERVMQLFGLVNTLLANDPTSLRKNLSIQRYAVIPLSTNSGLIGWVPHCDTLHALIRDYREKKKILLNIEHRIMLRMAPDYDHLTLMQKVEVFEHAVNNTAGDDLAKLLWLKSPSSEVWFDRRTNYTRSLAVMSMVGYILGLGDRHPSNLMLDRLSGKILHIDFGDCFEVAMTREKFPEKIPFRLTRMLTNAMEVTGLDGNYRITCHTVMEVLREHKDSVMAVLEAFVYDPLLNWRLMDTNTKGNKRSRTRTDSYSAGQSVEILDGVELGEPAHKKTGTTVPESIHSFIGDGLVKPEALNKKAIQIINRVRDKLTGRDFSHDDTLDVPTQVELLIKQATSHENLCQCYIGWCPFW
pIC50: −log10 of the molar value.
valueKind: pIC50

// returns reported pIC50 for input C[C@H]1COCCN1c1cc(C2(S(=O)(=O)c3ccc(Cl)cc3)CC2)nc(-c2ccc(NC(=O)Nc3ccc(C(F)(F)F)cc3)cc2)n1 [Example 27j] 8.12

P. C[C@H]1COCCN1c1cc(C2(S(=O)(=O)c3ccccc3)CC2)nc(-c2ccc(NC(=S)NCCO)cc2)n1 [Example 37aa]
Q. C[C@H]1COCCN1c1cc(C2(S(=O)(=O)c3ccccc3)CCOCC2)nc(-c2ccc(NC(=O)NCCO)cc2)n1 [Example 36db]
Please choose the item with the lower pIC50 value from this pair: P and Q State your choice using its label. Q

These measurements were taken from patent US20090018134A1.
